- Target System: FLJ20589 clone-derived protein (human hippocalcin-like protein 1, VILIP-3) (Homo sapiens, UniProt P37235)
- Construct: A human full-length cDNA clone was expressed as a protein with an N-terminal His tag; His tag (N); made in house; host or cells: Escherichia coli BL21star(DE3)pLysS (pDEST17 Gateway expression plasmid)
- Procedure Summary: SEC/MS interaction analysis (size exclusion spin column and mass analysis) with FLJ20589 clone-derived protein
- Format: binding
- Run Parameters: protein 23.75 μM, compound 250 μM
Listing of entries alongside the reported spectral intensity of the compound in the SEC spin column filtrate (protein fraction).
Recorded Metric: spectral intensity of the compound in the SEC spin column filtrate (protein fraction)

{"columns": ["Compound", "Value Measured"],
 "data": [
  ["CN1CCN(CCCN2c3ccccc3Sc3ccc(C(F)(F)F)cc32)CC1 [Trifluoperazine]", 57062370],
  ["O=C1CN=C(c2ccccc2)c2cc(Cl)ccc2N1CC1CC1 [prazepam]", 53037838],
  ["c1ccc(-c2ccc(C(c3ccccc3)n3ccnc3)cc2)cc1 (stereo not shown) [Bifonazole]", 3607174],
  ["Fc1ccc(C(c2ccc(F)cc2)N2CCN(C/C=C/c3ccccc3)CC2)cc1 [Flunarizine]", 308575]
]}

---

Entries and their spectral intensity of the compound in the SEC spin column filtrate (protein fraction)
- Target System: FLJ20589 clone-derived protein (human hippocalcin-like protein 1, VILIP-3) (Homo sapiens)
- Construct: A human full-length cDNA clone was expressed as a protein with an N-terminal His tag; His tag (N); made in house; host or cells: Escherichia coli BL21star(DE3)pLysS (pDEST17 Gateway expression plasmid)
- Procedure Summary: SEC/MS interaction analysis (size exclusion spin column and mass analysis) with FLJ20589 clone-derived protein
- Format: binding
- Run Parameters: protein 47.5 μM, compound 250 μM
Recorded Metric: spectral intensity of the compound in the SEC spin column filtrate (protein fraction)

{"columns": ["Compound", "Target System", "Value Measured"],
 "data": [
  ["CN1CCN(CCCN2c3ccccc3Sc3ccc(C(F)(F)F)cc32)CC1", "FLJ20589 clone-derived protein (human hippocalcin-like protein 1, VILIP-3) (Homo sapiens)", 116228047],
  ["O=C1CN=C(c2ccccc2)c2cc(Cl)ccc2N1CC1CC1", "FLJ20589 clone-derived protein (human hippocalcin-like protein 1, VILIP-3) (Homo sapiens)", 87274751],
  ["Fc1ccc(C(c2ccc(F)cc2)N2CCN(C/C=C/c3ccccc3)CC2)cc1", "FLJ20589 clone-derived protein (human hippocalcin-like protein 1, VILIP-3) (Homo sapiens)", 9317332],
  ["c1ccc(-c2ccc(C(c3ccccc3)n3ccnc3)cc2)cc1 (stereo not shown)", "FLJ20589 clone-derived protein (human hippocalcin-like protein 1, VILIP-3) (Homo sapiens)", 28949362]
]}

---

Property: spectral intensity of the compound in the SEC spin column filtrate (protein fraction); scope: individual compounds
- Target System: FLJ20589 clone-derived protein (human hippocalcin-like protein 1, VILIP-3) (Homo sapiens)
- Construct: A human full-length cDNA clone was expressed as a protein with an N-terminal His tag; His tag (N); made in house; host or cells: Escherichia coli BL21star(DE3)pLysS (pDEST17 Gateway expression plasmid)
- Procedure Summary: SEC/MS interaction analysis (size exclusion spin column and mass analysis) with FLJ20589 clone-derived protein
- Assay type: binding
- Run Parameters: protein 23.75 μM, compound 10 μM
Recorded Metric: spectral intensity of the compound in the SEC spin column filtrate (protein fraction)

{"columns": ["Compound", "Value Measured"],
 "data": [
  ["Fc1ccc(C(c2ccc(F)cc2)N2CCN(C/C=C/c3ccccc3)CC2)cc1 [Flunarizine]", 137693],
  ["c1ccc(-c2ccc(C(c3ccccc3)n3ccnc3)cc2)cc1 (stereo not shown) [Bifonazole]", 2189489],
  ["CN1CCN(CCCN2c3ccccc3Sc3ccc(C(F)(F)F)cc32)CC1 [Trifluoperazine]", 893634],
  ["O=C1CN=C(c2ccccc2)c2cc(Cl)ccc2N1CC1CC1 [prazepam]", 1912944]
]}

Cited source: patent US8178077B2
